B1: TRIM63 (parent)
chain: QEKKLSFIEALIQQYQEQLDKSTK

# Variants of: B1
# experimental protocol: protein stability index of a GFP-peptide fusion (GPS, HEK-293T) (PSI 1-6); higher = more stable;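 further: lentivirally expressed fusions sorted by FACS into six bins by GFP to DsRed ratio, PSI derived from sequencing read proportions per bin multiplied by bin number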
# condition context: c terminus: a fixed tail appended
Measured protein stability index, listed per entry for reference.
Kindly provide the number alone.

Would you please look over these solved cases?
- variant annotation: "K4P"
  protein stability index: 3.07
- variant annotation: "K24H"
  protein stability index: 2.95
- variant annotation: "L11M"
  protein stability index: 3.09
- variant annotation: "Q14E"
  protein stability index: 2.91
- variant annotation: "F7L"
  protein stability index: 3.06
- variant annotation: "K3E"
  protein stability index: 3.04

The record that follows has no protein stability index shown yet.
Q: Give the measured protein stability index for E17D
A: 3
